# Target System: α-glucosidase (Saccharomyces cerevisiae, UniProt P53341)
# Sequence (P53341 whole entry): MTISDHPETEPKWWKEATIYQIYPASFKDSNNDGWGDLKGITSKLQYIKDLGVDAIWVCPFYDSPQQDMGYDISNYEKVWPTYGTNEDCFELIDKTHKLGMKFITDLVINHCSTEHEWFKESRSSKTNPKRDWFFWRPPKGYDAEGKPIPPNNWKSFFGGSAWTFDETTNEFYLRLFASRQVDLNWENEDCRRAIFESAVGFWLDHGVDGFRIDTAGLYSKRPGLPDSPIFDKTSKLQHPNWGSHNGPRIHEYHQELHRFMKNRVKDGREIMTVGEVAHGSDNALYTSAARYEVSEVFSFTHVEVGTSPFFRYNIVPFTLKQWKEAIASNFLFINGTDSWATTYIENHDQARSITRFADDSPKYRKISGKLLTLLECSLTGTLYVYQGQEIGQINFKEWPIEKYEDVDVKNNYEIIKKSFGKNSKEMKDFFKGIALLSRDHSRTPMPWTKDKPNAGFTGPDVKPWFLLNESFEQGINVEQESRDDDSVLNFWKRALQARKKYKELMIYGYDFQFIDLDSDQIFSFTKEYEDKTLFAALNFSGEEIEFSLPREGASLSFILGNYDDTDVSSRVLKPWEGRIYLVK
# Run Description: α-glucosidase inhibition assay (96-well, pNPG substrate, 405 nm)
# Assay type: biochemical
# Setup Conditions: S3 Table; absorbance at 405 nm
Please enter Criterion met where OD of sample is greater than or equal to 0.5, and Criterion not met where it is lower.

// below: answered compounds
Mol: Clc1ccc(-c2nnc(-c3ccc[nH]3)o2)c(Cl)c1
Classification: Criterion not met

Mol: O=C1Oc2ccccc2C(=O)/C1=C/c1ccc(-c2ccccc2)cc1
Classification: Criterion not met

Mol: CCSc1nc2ccccc2n1CC(=O)N/N=C/c1ccc(O)cc1O
Classification: Criterion not met

Mol: O=[N+]([O-])c1ccc(N/N=C\c2ccc(O)cc2)c([N+](=O)[O-])c1
Classification: Criterion met

Data request: Quick check, OD of sample >= 0.5? CCCCCCCCCCCCSc1nc2ccccc2n1CC(=O)N/N=C/c1ccc(O)c(OCC)c1
Data returned: Criterion met
